Biological target: T1, Anti-PSMA Fab (SEQ ID NOs: 19, 20)
T1 construct: Biotinylated and captured on neutravidin coated plates in the phage ELISA; also called 006 PSMA Fab
Experiment: phage ELISA; PSMA Fab on plate pre-incubated with PSMA antigen as competitor, anti-M13-HRP detection;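 note: clonal phage from crude supernatants added without washing to wells preblocked with or without PSMA antigen, washed, bound phage read out by ELISA with HRP-linked anti-M13 antibody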
Where no end group is shown, it is not given here.
Phage binding ELISA, Anti-PSMA Fab signal in the presence of PSMA for assorted binders
readout.type: Phage binding ELISA, Anti-PSMA Fab signal in the presence of PSMA

binder | recorded.number
EPKWCTPEWMCLNL (Tested as clonal phage supernatant, with the peptide fused to pIII of the bacteriophage) [Phage-2220] | 0.0915
PEKWCIPEWMCDAL (Tested as clonal phage supernatant, with the peptide fused to pIII of the bacteriophage; Read from the row with '-' as the Peptide-180 residue: PEKWCIPEWMCDAL) [Phage-2214] | 0.0578
SENWCIPAWMCSGF (Tested as clonal phage supernatant, with the peptide fused to pIII of the bacteriophage) [Phage-2219] | 0.111
WAQWCTPSWMCEGF (Tested as clonal phage supernatant, with the peptide fused to pIII of the bacteriophage) [Phage-2216] | 0.0929
LEKWCIPAWMCAVL (cysteine pairing not given here; also: fused to pIII of bacteriophage, Tested as clonal phage supernatant, with the peptide fused to pIII of the bacteriophage) [Phage-2206] | 0.078
ALHWCIPEWMCSSM (Tested as clonal phage supernatant, with the peptide fused to pIII of the bacteriophage) [Phage-2208] | 0.103
VPKQCVPEWMCSGF (Tested as clonal phage supernatant, with the peptide fused to pIII of the bacteriophage) [Phage-2218] | 0.0779
QDHWCVPQWMCEML (Tested as clonal phage supernatant, with the peptide fused to pIII of the bacteriophage) [Phage-2209] | 0.07
GHQWCIPQWMCVGL (Tested as clonal phage supernatant, with the peptide fused to pIII of the bacteriophage) [Phage-2221] | 0.0809
TEKWCIPSWMCEIS (Tested as clonal phage supernatant, with the peptide fused to pIII of the bacteriophage) [Phage-2212] | 0.0837
PGKWCIPAWMCSLV (Tested as clonal phage supernatant, with the peptide fused to pIII of the bacteriophage) [Phage-2211] | 0.157
VIPLCSPPWMCFMS (Tested as clonal phage supernatant, with the peptide fused to pIII of the bacteriophage) [Phage-2213] | 0.0631
THNWCTPQWMCDGF (Tested as clonal phage supernatant, with the peptide fused to pIII of the bacteriophage) [Phage-2210] | 0.0628
GVKWCTPPWMCEVA (Tested as clonal phage supernatant, with the peptide fused to pIII of the bacteriophage) [Phage-2215] | 0.0672
EVKWCIPSWMCESE (Tested as clonal phage supernatant, with the peptide fused to pIII of the bacteriophage) [Phage-2217] | 0.0904
PTKWCIPEWMCSVI (Tested as clonal phage supernatant, with the peptide fused to pIII of the bacteriophage) [Phage-2207] | 0.0587
